Data origin: patent US20230115350A1

# pIC50 measurements, system: TEAD1 protein (YAP Binding Domain) (Homo sapiens)
# Sequence (P28347 209-426 limits assumed): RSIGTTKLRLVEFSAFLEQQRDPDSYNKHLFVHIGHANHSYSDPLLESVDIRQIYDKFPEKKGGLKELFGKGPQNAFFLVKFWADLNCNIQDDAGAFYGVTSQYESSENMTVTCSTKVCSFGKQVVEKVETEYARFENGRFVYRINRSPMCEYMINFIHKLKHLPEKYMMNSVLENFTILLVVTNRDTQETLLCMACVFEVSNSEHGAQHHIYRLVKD
pIC50: −log10 of the molar value.

# compound, pIC50
data = [
    ("C=CC(=O)Nc1ccc(/C=C/c2cccc(F)c2)c(F)c1", "5.70 to 6.30"),
    ("C=CC(=O)Nc1ccc(NCc2cccc(F)c2)c(F)c1", "5.70 to 6.30"),
    ("C=CC(=O)Nc1ccc(OCc2cc(F)ccc2Cl)c(F)c1", "5.70 to 6.30"),
    ("C=CC(=O)Nc1ccc(OCc2cccc(F)c2)c(Cl)c1", "≥ 6.60"),
    ("C=CC(=O)Nc1ccc2c(c1)OCC(c1cccc(F)c1)O2 (stereo not shown)", "6.30 to 6.60"),
    ("C=CC(=O)Nc1ccc(OCc2cccc(F)c2)c(C)c1", "6.30 to 6.60"),
]

Hi! What's the reported pIC50 for C=CC(=O)Nc1ccc(Oc2cccc(F)c2)c(F)c1 on TEAD1 protein (YAP Binding Domain) (Homo sapiens)? ≥ 6.60

Hi! What's the reported pIC50 for C=CC(=O)Nc1ccc(OCC2CCCC(F)(F)C2)c(F)c1 (stereo not shown) on TEAD1 protein (YAP Binding Domain) (Homo sapiens)? ≥ 6.60

Hi! What's the reported pIC50 for C=CC(=O)Nc1cnc(OCc2cccc(F)c2)c(F)c1 on TEAD1 protein (YAP Binding Domain) (Homo sapiens)? 6.30 to 6.60

Hi! What's the reported pIC50 for C=CC(=O)Nc1ccc(OCc2cncc(C(F)(F)F)c2)cc1C#N on TEAD1 protein (YAP Binding Domain) (Homo sapiens)? < 5.70
